molecular target: kinase-domain human PKCι (Homo sapiens, UniProt P41743); construct: Recombinant, kinase-domain human PKCι is expressed and purified in-house; made in house; experiment: PKCι IC50 IMAP fluorescence polarisation assay, kinase-domain enzyme; format: biochemical; conditions: kinase domain PKCi at 2 μM ATP; read-out: IC50 in IMAP assay against kinase domain PKCi (Activity)
Sequence (P41743 254-522 limits assumed): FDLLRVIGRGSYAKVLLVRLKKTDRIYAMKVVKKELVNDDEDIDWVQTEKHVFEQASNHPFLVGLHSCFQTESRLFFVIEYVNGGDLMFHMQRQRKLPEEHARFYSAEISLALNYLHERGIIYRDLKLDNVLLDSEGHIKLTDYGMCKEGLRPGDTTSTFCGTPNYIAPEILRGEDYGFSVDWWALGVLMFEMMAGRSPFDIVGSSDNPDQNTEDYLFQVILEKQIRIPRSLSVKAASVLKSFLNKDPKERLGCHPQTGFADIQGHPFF
pIC50: −log10 of the molar value.
# Lookup of reported pIC50 keyed by entry

These solved cases illustrate the format of a correct answer.
# query: pIC50 | item Cc1c(C(N)=O)sc2nc(-c3ccncc3)nc(NCCN)c12 | system: kinase-domain human PKCι (Homo sapiens, UniProt P41743)
6.00 to 7.00

Form: Entry = CNCCNc1nc(-c2ccncc2)nc2sc3c(c12)CCCC3 | System = kinase-domain human PKCι (Homo sapiens, UniProt P41743) | pIC50 = ____
6.00 to 7.00

Record lookup: for kinase-domain human PKCι (Homo sapiens, UniProt P41743), what pIC50 belongs to c1cc(-c2nc(OC3CCCNC3)c3c4c(sc3n2)CCCC4)ccn1 (stereo not drawn) ?
5.00 to 6.00

Quick check: pIC50 on kinase-domain human PKCι (Homo sapiens, UniProt P41743), item Cc1n[nH]c(C)c1-c1nc(NC[C@H](C)N)c2c3c(sc2n1)CCCC3 ?
5.00 to 6.00

State its pIC50 on kinase-domain human PKCι (Homo sapiens, UniProt P41743): c1cc(-c2nc(OC[C@@H]3CCCN3)c3c4c(sc3n2)CCCC4)ccn1
5.00 to 6.00

Please state recorded pIC50 (tested on kinase-domain human PKCι (Homo sapiens, UniProt P41743)) of Brc1cccc(CN2CCN(c3nc(-c4ccncc4)nc4sc5c(c34)CCCC5)CC2)c1
4.40 to 5.00

Enter reported pIC50 observed with kinase-domain human PKCι (Homo sapiens, UniProt P41743) for C[C@@H](N)CNc1nc(-c2cn[nH]c2)nc2sc3c(c12)CCCC3
5.00 to 6.00

Give pIC50 (kinase-domain human PKCι (Homo sapiens, UniProt P41743)) of the following molecule: c1cc(-c2nc(N3CCCNCC3)c3c4c(sc3n2)CCCC4)ccn1
6.00 to 7.00

Lab note: next molecule to report on.
Request - read-out pIC50 | tested on kinase-domain human PKCι (Homo sapiens, UniProt P41743) | molecule CN(C)CCOc1nc(-c2ccncc2)nc2sc3c(c12)CCCC3
5.00 to 6.00
